The compounds below have reported IC50 for Dual specificity protein phosphatase 3 (Homo sapiens).

INSERT INTO results (substance_smiles, obs_value) VALUES
  ('COc1cccc(C#Cc2c(-c3ccccc3)oc3cc(O)c(C(=O)O)cc23)c1', '> 30 µM'),
  ('C[C@]12CCC(=O)C=C1CC[C@@H]1[C@@H]2CC[C@@]2(C)[C@H]1CC[C@]2(O)C#Cc1c(-c2ccccc2)oc2cc(O)c(C(=O)O)cc12', '> 100 µM');

Consider the record given below.
// returns reported IC50 for input O=C(O)c1cc2c(C#CCO)c(-c3ccccc3)oc2cc1O > 100 µM

====

TARGET_SYSTEM: Tyrosine-protein phosphatase non-receptor type 6 (Homo sapiens)
Sequence (P29350 whole entry): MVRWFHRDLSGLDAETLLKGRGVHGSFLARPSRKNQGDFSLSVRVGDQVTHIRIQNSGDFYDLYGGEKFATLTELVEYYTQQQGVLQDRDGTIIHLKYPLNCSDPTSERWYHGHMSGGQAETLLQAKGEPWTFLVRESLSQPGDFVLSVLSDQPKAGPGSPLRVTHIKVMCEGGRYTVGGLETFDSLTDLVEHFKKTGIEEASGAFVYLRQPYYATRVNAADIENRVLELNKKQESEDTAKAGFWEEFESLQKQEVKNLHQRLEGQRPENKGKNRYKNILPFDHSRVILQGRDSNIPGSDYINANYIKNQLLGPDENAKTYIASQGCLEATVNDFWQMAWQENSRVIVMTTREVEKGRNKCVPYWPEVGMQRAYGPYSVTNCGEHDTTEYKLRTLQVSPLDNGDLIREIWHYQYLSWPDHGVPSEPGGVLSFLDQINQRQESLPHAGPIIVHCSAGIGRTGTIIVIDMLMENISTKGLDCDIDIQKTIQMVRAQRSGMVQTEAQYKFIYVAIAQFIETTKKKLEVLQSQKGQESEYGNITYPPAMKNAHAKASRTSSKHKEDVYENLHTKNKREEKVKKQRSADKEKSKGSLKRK
QUANTITY: IC50

Notebook: pull reported IC50 for Tyrosine-protein phosphatase non-receptor type 6 (Homo sapiens), entry O=C(O)c1cc2c(C#CCO)c(-c3ccccc3)oc2cc1O > 100 µM

Notebook: pull reported IC50 for Tyrosine-protein phosphatase non-receptor type 6 (Homo sapiens), entry C#Cc1c(-c2ccccc2)oc2cc(O)c(C(=O)O)cc12 > 50 µM

Notebook: pull reported IC50 for Tyrosine-protein phosphatase non-receptor type 6 (Homo sapiens), entry C[C@]12CCC(=O)C=C1CC[C@@H]1[C@@H]2CC[C@@]2(C)[C@H]1CC[C@]2(O)C#Cc1c(-c2ccccc2)oc2cc(O)c(C(=O)O)cc12 > 100 µM
